# assayed-target: Scribble PDZ1 (human, UniProt Q14160 719-829)
# Sequence (Q14160 719-829): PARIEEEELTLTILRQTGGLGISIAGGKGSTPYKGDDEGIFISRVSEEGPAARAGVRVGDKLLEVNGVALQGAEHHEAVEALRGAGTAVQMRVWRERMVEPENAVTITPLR
# measurement-description: MST
Non-standard residues stand in square brackets, D forms with d. No end group written: not given here. pS = N[C@@H](COP(=O)(O)O)C(=O)O
So I've got a bunch of binders here, and I need their Kd values.
Your answer should be a number followed by the unit of measure.

Request: What does the record list as Kd for VRKLPSTTL-OH (also: FITC label, position not given here) [FITC-labelled unphosphorylated RPS6KA1 peptide (VRKLPSTTL-coo-)] ?
Result: 1000 nM

Request: What does the record list as Kd for VRKLP[pS]TTL (also: FITC label, position not given here) [FITC-labelled phosphorylated RPS6KA1 peptide (S732, p-3)] ?
Result: 390 nM
